Assay: 384-well plate pilot, post-Golgi transport modulator project, inhibition of yeast transport mutant growth (AID 636)
Conditions: absorbance 615 nm, about 18 h, hits give high values
Active and inactive are the calls of the source. Rule as the data show it: active = inhibition above about 31%; inactive = the rest.
Task for the reader: assign each of the following molecules its reported inhibition.

Solved entries (count: 6):
>  <molecule>
c1ccc(-c2nn3nnnc3c3ccccc23)cc1

>  <parameter measured>
inhibition

>  <experimental value>
-1.04% (inactive)

$$$$
>  <molecule>
CCn1nnnc1SCC(=O)N1CCOCC1

>  <parameter measured>
inhibition

>  <experimental value>
-4.53% (inactive)

$$$$
>  <molecule>
CCC1CCCCN1C(=O)CSc1nnc(-c2ccco2)o1 (stereo not drawn)

>  <parameter measured>
inhibition

>  <experimental value>
-1.78% (inactive)

$$$$
>  <molecule>
CCCCCn1c2nc3ccccc3nc2c2c(=O)n(CC(C)C)cnc21

>  <parameter measured>
inhibition

>  <experimental value>
-0.79% (inactive)

$$$$
>  <molecule>
Cc1csc(NC(=O)Nc2cccc(Cl)c2)n1

>  <parameter measured>
inhibition

>  <experimental value>
-3.73% (inactive)

$$$$
>  <molecule>
CCN(CC(=O)NC(=O)NCc1ccco1)Cc1nc2ccccc2c(=O)[nH]1

>  <parameter measured>
inhibition

>  <experimental value>
-0.78% (inactive)

$$$$

Quick request: inhibition for each listed item, please.
1. N#CC1=C(SCc2ccccc2)NC(=O)C(C#N)C12CCCC2 (stereo not drawn)
2. COc1ccc(-c2nnc(-c3ccc(N)cc3)o2)cc1
3. CCn1nc(C(=O)O)c(=O)c2cc3c(cc21)OCO3
4. CCOc1cc(C(=O)Nc2ncccn2)cc(OCC)c1OCC
5. CC1(C)CC(=O)C2=C(C1)Nc1ccccc1N=C2
6. CCN(CCO)C(=O)CC(c1ccccc1)c1cc(Br)ccc1O (stereo not drawn)

Response:
["-5% (inactive)", "-4.13% (inactive)", "-1.17% (inactive)", "-2.86% (inactive)", "-0.41% (inactive)", "-2.3% (inactive)"]

Quick request: inhibition for each listed item, please.
1. Cc1cc(C)nc(SC2=CS(=O)(=O)c3ccccc32)n1
2. CC(=O)Nc1ccc(NS(=O)(=O)c2ccc(Cl)c(C(=O)O)c2)cc1
3. COc1cc2nc(N3CCN(C(=O)c4ccco4)CC3)nc(N)c2cc1OC
4. Cc1ccc(S(=O)(=O)C2(C(=O)N3CCCCCC3)CC2)cc1
5. CN(C)/C=c1\sc2c(C#N)cc(C(=O)c3ccc(Br)cc3)n2c1=O
6. O=S(=O)(c1ccc(Br)s1)N1CCN(c2ccccc2)CC1

Response:
["-1.2% (inactive)", "-4.61% (inactive)", "2.47% (inactive)", "-2.73% (inactive)", "-4.29% (inactive)", "-3.78% (inactive)"]

Quick request: inhibition for each listed item, please.
1. COc1ccc(/C=N/n2c(SC)nnc2-c2ccccc2)cc1C
2. CCOC(=O)CSC1=C(C#N)C(c2ccc(Cl)cc2)C(C(=O)OC)C(=O)N1 (stereo not drawn)
3. COCc1nnc(SCC(=O)NC(C)c2ccccc2)n1-c1ccccc1 (stereo not drawn)

Response:
0.93% (inactive)
-4.74% (inactive)
-4.66% (inactive)

Quick request: inhibition for each listed item, please.
1. C=CCSc1nnc(-c2ccc(Cl)cc2Cl)o1
2. CC(C)CNS(=O)(=O)c1ccc(CCC(=O)NCc2ccco2)cc1
3. N#CCc1nc2c3c4c(sc3ncn2n1)CCCC4
4. O=C(Cn1c(-c2cncs2)nc2ccccc21)NC1CCCC1
5. COCCCNCC(=O)Nc1ccc(OC(F)(F)F)cc1

Response:
1: -5.47% (inactive); 2: -4.93% (inactive); 3: -5.54% (inactive); 4: -4.05% (inactive); 5: -9.2% (inactive)

Quick request: inhibition for each listed item, please.
1. O=C(NCCN1CCOCC1)c1ccc(CS(=O)(=O)Cc2ccccc2F)o1
2. O=C(CSc1nc2ccccc2o1)N1CCN(c2ccc(Cl)cc2)CC1

Response:
1: -3.84% (inactive); 2: -1.56% (inactive)
